Tested on: normolipemic, male Wister rats
Test: Determination of the hypolipemic effect in rats (serum total cholesterol and triglycerides after oral administration)
Format: in vivo, rat
Settings: 100 mg/kg, three administrations over three days
Method: 1) Determination of the hypolipemic effect in rats The lipid-lowering effect of the test substances was examined in groups each of 10 normolipemic, male Wister rats of 200 to 220 g in weight. The investigations were performed after a 3-week adaption training of the eating habits of the animals. The controlled feeding was carried out daily from 8 a.m. to 10 a.m. The test substances were administered at 11 a.m. […]
assay_endpoint: Percentage change of the total cholesterol (TC) level in the rat serum, X ± SD (%)
Field: numeric (%). Do not append units.

Quick one: Percentage change of the total cholesterol (TC) level in the rat serum, X ± SD for CC(C)(CO)c1ccc(CCC(O)COc2ccc(C(=O)O)cc2)cc1 (stereo not shown) ?
-39.7

Give the measured Percentage change of the total cholesterol (TC) level in the rat serum, X ± SD of CC(C)(C)c1ccc(CCC(O)COc2ccc(C(=O)OCC(O)CO)cc2)cc1 (stereo not shown) .
-44.1

Returns the measured Percentage change of the total cholesterol (TC) level in the rat serum, X ± SD for the input compound. Input: CCOC(=O)C(C)(C)Oc1ccc(Cl)cc1 [CLOFIBRAT, reference compound]
-14.5

Give its Percentage change of the total cholesterol (TC) level in the rat serum, X ± SD value. Item: CC(C)(C(=O)O)c1ccc(CCC(O)COc2ccc(C(=O)O)cc2)cc1 (stereo not shown)
-17.5

Values from patent US5153353A
